Target: hMC4-R (Homo sapiens, UniProt P32245)
Construct: expressed in transfected cells; host or cells: CHO-K1
Sequence (P32245 whole entry): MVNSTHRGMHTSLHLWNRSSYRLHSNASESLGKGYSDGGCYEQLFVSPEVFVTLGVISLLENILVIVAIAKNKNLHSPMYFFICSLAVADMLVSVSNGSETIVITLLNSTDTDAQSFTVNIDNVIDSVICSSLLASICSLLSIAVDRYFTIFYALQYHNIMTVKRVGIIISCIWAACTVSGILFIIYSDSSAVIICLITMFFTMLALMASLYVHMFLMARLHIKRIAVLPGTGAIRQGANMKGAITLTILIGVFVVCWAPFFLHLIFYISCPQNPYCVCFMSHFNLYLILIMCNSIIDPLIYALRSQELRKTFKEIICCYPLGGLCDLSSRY
Experiment: Radioligand binding assay, [125I]-NDP-α-MSH competition, CHO-K1 membranes
Details: Table 5; read-out: Ki KMC4-R
Bridge positions count the residues as written; N and C are the ends. Square brackets hold non-standard residues; d marks the D form. Peptide text beside a SMILES is read from it. Bip = N[C@@H](Cc1ccc(-c2ccccc2)cc1)C(=O)O; Nle = CCCC[C@H](N)C(=O)O; βAla = NCCC(=O)O
propertyName: Ki (nM)
Output spec: scalar in nM, unitless text.

{"columns": ["compound", "Ki, nM"],
 "data": [
  ["C[C@@H](O)[C@H](NC(=O)[C@H]1CSSC[C@H](NC(=O)[C@H](N)Cc2ccccc2)C(=O)N[C@@H](Cc2c[nH]cn2)C(=O)N[C@H](Cc2ccccc2)C(=O)N[C@@H](CCCNC(=N)N)C(=O)N[C@@H](Cc2ccc(-c3ccccc3)cc2)C(=O)NCCC(=O)N1)C(N)=O (H-[dF]CH[dF]R[Bip][βAla][dC]T-NH2; disulfide 2-8)", 583]
]}

The record that follows has no Ki shown yet.
Fill in the blank: the reported Ki of CCCC[C@H](NC(C)=O)C(=O)N[C@H]1CSSC[C@@H](C(N)=O)NC(=O)[C@@H](C)NC(=O)[C@H](Cc2c[nH]c3ccccc23)NC(=O)[C@H](CCCNC(=N)N)NC(=O)[C@@H](Cc2ccccc2)NC(=O)[C@H](Cc2c[nH]cn2)NC(=O)[C@@H](C)NC1=O (Ac-[Nle]C[dA]H[dF]RW[dA]C-NH2; disulfide 2-9) is ____.
48

* * *

Biological target: hMC5-R (Homo sapiens, UniProt P33032)
Construct: expressed in transfected cells; host or cells: CHO-K1
Sequence (P33032 whole entry): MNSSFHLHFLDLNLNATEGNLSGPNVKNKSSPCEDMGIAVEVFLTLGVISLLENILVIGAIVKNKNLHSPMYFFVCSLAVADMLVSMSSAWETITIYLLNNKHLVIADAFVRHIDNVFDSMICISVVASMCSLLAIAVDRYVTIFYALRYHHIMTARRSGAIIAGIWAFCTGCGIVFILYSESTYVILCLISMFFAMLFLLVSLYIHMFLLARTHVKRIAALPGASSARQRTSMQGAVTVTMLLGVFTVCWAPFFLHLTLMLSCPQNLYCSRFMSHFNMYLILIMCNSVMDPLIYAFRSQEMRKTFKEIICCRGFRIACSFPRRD
Test: Radioligand binding assay, [125I]-NDP-α-MSH competition, CHO-K1 membranes
Conditions: Ki hMC5-R, Table 5
propertyName: Ki (nM)
Output spec: scalar in nM, unitless text.

{"columns": ["molecule", "systemTested", "Ki [nM]"],
 "data": [
  ["CC(=O)N[C@H](CCCNC(=N)N)C(=O)N[C@H]1CSSC(C)(C)[C@@H](C(N)=O)NC(=O)[C@H](Cc2c[nH]c3ccccc23)NC(=O)[C@H](CCCNC(=N)N)NC(=O)[C@@H](Cc2ccccc2)NC(=O)[C@H](Cc2c[nH]cn2)NC(=O)[C@@H](C)NC1=O", "hMC5-R (Homo sapiens, UniProt P33032)", 816],
  ["CCCC[C@H](NC(C)=O)C(=O)N[C@H]1CSSC[C@@H](C(N)=O)NC(=O)[C@H](Cc2c[nH]c3ccccc23)NC(=O)[C@H](CCCNC(=N)N)NC(=O)[C@@H](Cc2ccccc2)NC(=O)[C@H](Cc2c[nH]cn2)NC(=O)[C@@H](C)NC1=O", "hMC5-R (Homo sapiens, UniProt P33032)", 1800],
  ["CCCC[C@H](NC(C)=O)C(=O)N[C@H]1CSSC[C@@H](C(=O)O)NC(=O)[C@H](Cc2c[nH]c3ccccc23)NC(=O)[C@H](CCCNC(=N)N)NC(=O)[C@@H](Cc2ccccc2)NC(=O)[C@H](Cc2c[nH]cn2)NC(=O)[C@@H](C)NC1=O", "hMC5-R (Homo sapiens, UniProt P33032)", 114],
  ["CCCC[C@H](NC(C)=O)C(=O)N[C@H]1CSSC(C)(C)[C@@H](C(=O)O)NC(=O)[C@H](Cc2c[nH]c3ccccc23)NC(=O)[C@H](CCCNC(=N)N)NC(=O)[C@@H](Cc2ccccc2)NC(=O)[C@H](Cc2c[nH]cn2)NC(=O)[C@@H](C)NC1=O", "hMC5-R (Homo sapiens, UniProt P33032)", 165],
  ["CC(=O)N[C@@H](CCCNC(=N)N)C(=O)N[C@H]1CSSC[C@@H](C(N)=O)NC(=O)[C@H](Cc2c[nH]c3ccccc23)NC(=O)[C@H](CCCNC(=N)N)NC(=O)[C@@H](Cc2ccccc2)NC(=O)[C@H](Cc2c[nH]cn2)NC(=O)[C@@H](C)NC1=O", "hMC5-R (Homo sapiens, UniProt P33032)", 430],
  ["CC(=O)N[C@H](CCCNC(=N)N)C(=O)N[C@H]1CSSC[C@@H](C(N)=O)NC(=O)[C@H](Cc2c[nH]c3ccccc23)NC(=O)[C@H](CCCNC(=N)N)NC(=O)[C@@H](Cc2ccccc2)NC(=O)[C@H](Cc2c[nH]cn2)NC(=O)[C@@H](C)NC1=O", "hMC5-R (Homo sapiens, UniProt P33032)", 352]
]}

The record that follows has no Ki shown yet.
Fill in the blank: the reported Ki of CCCC[C@H](NC(C)=O)C(=O)N[C@H]1CSSC[C@@H](C(N)=O)NC(=O)[C@H](Cc2c[nH]c3ccccc23)NC(=O)[C@H](CCCNC(=N)N)NC(=O)[C@@H](Cc2ccc3ccccc3c2)NC(=O)[C@H](Cc2c[nH]cn2)NC(=O)[C@@H](C)NC1=O is ____.
102
